Values were extracted from patent US8987287B2.

system_under_test: κ opioid receptor (Homo sapiens (Human))
method_notes: κ-opioid receptor [35S]GTPγS functional assay, U-2 OS cells
Assay type: biochemical
Procedure: κ-Opioid Receptor Functional Assay Procedures: Functional [^35S]GTPγS binding assays were conducted as follows. κ opioid receptor membrane solution was prepared by sequentially adding final concentrations of 0.026 μg/μl κ membrane protein (in-house), 10 μg/mL saponin, 3 μM GDP and 0.20 nM [^35S]GTPγS to binding buffer (100 mM NaCl, 10 mM MgCl2, 20 mM HEPES, pH 7.4) on ice. […]
attribute_measured: pEC50
pEC50 is defined as minus the log10 of a concentration measured in mol/L.

>>> measured_result("CCN1C(=O)N(CC)[C@]2(CC[C@@]3(O)[C@H]4Cc5ccc(O)cc5[C@@]3(CCN4CC3CC3)C2)C1=O")
8.80
>>> measured_result("O=C1NC(=O)[C@@]2(CC[C@@]3(O)[C@H]4Cc5ccc(O)cc5[C@@]3(CCN4CC3CC3)C2)N1Cc1ccccc1")
7.55
>>> measured_result("CCN1C(=O)N[C@]2(CC[C@@]3(O)[C@H]4Cc5ccc(O)cc5[C@@]3(CCN4C)C2)C1=O")
5.61

# ---- query molecule ----
Form: Entry = O=C1NC(=O)[C@@]2(CC[C@@]3(O)[C@H]4Cc5ccc(O)cc5[C@@]3(CCN4CC3CC3)C2)N1CC(F)(F)F | System = κ opioid receptor (Homo sapiens (Human)) | pEC50 = ____
7.65
